Target Of Assay: Protein cereblon/Bromodomain-containing protein 4 (Homo sapiens, UniProt O60885+Q96SW2)
Test Description: PROTAC activity at CRBN/BRD4 in HEK293 cells assessed as induction of BRD4 degradation by measuring maximal efficacy incubated for 24 hrs by HTRF assay relative to control
Format: cell-based
Experimental Endpoint: Emax (%)

P = Cc1sc2c(c1C)C(c1ccc(Cl)cc1)=N[C@@H](CCCCCNC(=O)COc1cccc3c1C(=O)N(C1CCC(=O)NC1=O)C3=O)c1nnc(C)n1-2 (stereo not given in full)
Q = Cc1sc2c(c1C)C(c1ccc(Cl)cc1)=N[C@@H](CCNCCCCNC(=O)COc1cccc3c1C(=O)N(C1CCC(=O)NC1=O)C3=O)c1nnc(C)n1-2 (stereo not given in full)
Query: For the two items P and Q , which reports the higher Emax value? Write down the label of the entry you select.
Result: P

====

Target Of Assay: Protein cereblon (Homo sapiens, UniProt Q96SW2)
Test Description: Binding affinity to NanoLuc-fused CRBN (unknown origin) transfected in live HEK293 cells using NanoGlo as substrate incubated for 2 hrs by NanoBRET assay
Format: cell-based
pIC50: −log10 of the molar value.
Experimental Endpoint: pIC50

Cc1sc2c(c1C)C(c1ccc(Cl)cc1)=N[C@@H](CCCCCNC(=O)COc1cccc3c1C(=O)N(C1CCC(=O)NC1=O)C3=O)c1nnc(C)n1-2 (some centres undefined) | 6.30

A = Cc1sc2c(c1C)C(c1ccc(Cl)cc1)=N[C@@H](CC(=O)CCCCNC(=O)COc1cccc3c1C(=O)N(C1CCC(=O)NC1=O)C3=O)c1nnc(C)n1-2 (some centres undefined)
B = Cc1sc2c(c1C)C(c1ccc(Cl)cc1)=N[C@@H](CCNCCCCNC(=O)COc1cccc3c1C(=O)N(C1CCC(=O)NC1=O)C3=O)c1nnc(C)n1-2 (some centres undefined)
C = Cc1sc2c(c1C)C(c1ccc(Cl)cc1)=N[C@@H](CC(=O)OCCCCNC(=O)COc1cccc3c1C(=O)N(C1CCC(=O)NC1=O)C3=O)c1nnc(C)n1-2 (some centres undefined)
Query: Output the entries ranked by pIC50 from maximum down to minimum. Answer format: the labels, ordered as requested.
Result: C, A, B

====

Target Of Assay: Bromodomain-containing protein 4 (Homo sapiens, UniProt O60885)
Test Description: Binding affinity to N-terminal GST-tagged BRD4-BD1 (unknown origin) using biotinylated histon4 peptide as substrate incubated for 30 mins by HTRF assay
pIC50: −log10 of the molar value.
Experimental Endpoint: pIC50

Cc1sc2c(c1C)C(c1ccc(Cl)cc1)=N[C@@H](CC(=O)OCCCCNC(=O)COc1cccc3c1C(=O)N(C1CCC(=O)NC1=O)C3=O)c1nnc(C)n1-2 (some centres undefined) | 8.64
Cc1sc2c(c1C)C(c1ccc(Cl)cc1)=N[C@@H](CCCCCNC(=O)COc1cccc3c1C(=O)N(C1CCC(=O)NC1=O)C3=O)c1nnc(C)n1-2 (some centres undefined) | 7.17

1 = Cc1sc2c(c1C)C(c1ccc(Cl)cc1)=N[C@@H](CC(=O)CCCCNC(=O)COc1cccc3c1C(=O)N(C1CCC(=O)NC1=O)C3=O)c1nnc(C)n1-2 (some centres undefined)
2 = Cc1sc2c(c1C)C(c1ccc(Cl)cc1)=N[C@@H](CCNCCCCNC(=O)COc1cccc3c1C(=O)N(C1CCC(=O)NC1=O)C3=O)c1nnc(C)n1-2 (some centres undefined)
Query: Please choose the item with the lower pIC50 value from this pair: 1 and 2 Write down the label of the entry you select.
Result: 2

====

Target Of Assay: Protein cereblon (Homo sapiens)
Test Description: Binding affinity to NanoLuc-fused CRBN (unknown origin) transfected in permeabilized HEK293 cells using NanoGlo as substrate incubated for 2 hrs by NanoBRET assay
Assay type: cell-based
pIC50: −log10 of the molar value.
Experimental Endpoint: pIC50

a = Cc1sc2c(c1C)C(c1ccc(Cl)cc1)=N[C@@H](CC(=O)OCCCCNC(=O)COc1cccc3c1C(=O)N(C1CCC(=O)NC1=O)C3=O)c1nnc(C)n1-2 (some centres undefined)
b = Cc1sc2c(c1C)C(c1ccc(Cl)cc1)=N[C@@H](CCCCCNC(=O)COc1cccc3c1C(=O)N(C1CCC(=O)NC1=O)C3=O)c1nnc(C)n1-2 (some centres undefined)
Query: For the two items a and b , which reports the higher pIC50 value? Write down the label of the entry you select.
Result: a

====

Target Of Assay: Protein cereblon/Bromodomain-containing protein 4 (Homo sapiens, UniProt O60885+Q96SW2)
Test Description: PROTAC activity at CRBN/BRD4 in HEK293 cells assessed as induction of BRD4 degradation incubated for 24 hrs by HTRF assay
Assay type: cell-based
Experimental Endpoint: DC50 (nM)

1 = Cc1sc2c(c1C)C(c1ccc(Cl)cc1)=N[C@@H](CC(=O)CCCCNC(=O)COc1cccc3c1C(=O)N(C1CCC(=O)NC1=O)C3=O)c1nnc(C)n1-2 (some centres undefined)
2 = Cc1sc2c(c1C)C(c1ccc(Cl)cc1)=N[C@@H](CC(=O)OCCCCNC(=O)COc1cccc3c1C(=O)N(C1CCC(=O)NC1=O)C3=O)c1nnc(C)n1-2 (some centres undefined)
Query: Please choose the item with the lower DC50 value from this pair: 1 and 2 Write down the label of the entry you select.
Result: 2
(2: 5.4 nM, 1: 9.2 nM)

====

Target Of Assay: von Hippel-Lindau disease tumor suppressor/Bromodomain-containing protein 4 (Homo sapiens, UniProt O60885+P40337)
Sequence (P40337 whole entry, looked up, other chains not shown): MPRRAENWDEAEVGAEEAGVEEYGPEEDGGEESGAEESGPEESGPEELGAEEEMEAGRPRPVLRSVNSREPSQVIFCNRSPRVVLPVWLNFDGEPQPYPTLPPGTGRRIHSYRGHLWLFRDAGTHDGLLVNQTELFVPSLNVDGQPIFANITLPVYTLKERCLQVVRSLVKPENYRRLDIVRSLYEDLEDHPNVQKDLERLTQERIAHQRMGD
Test Description: PROTAC activity at VHL/BRD4 in HEK293 cells assessed as induction of BRD4 degradation incubated for 24 hrs by HTRF assay
Format: cell-based
Experimental Endpoint: DC50 (µM)

Cc1ncsc1-c1ccc(CNC(=O)[C@@H]2C[C@@H](O)CN2C(=O)[C@H](C(C)C)N2Cc3ccccc3C2=O)c(OCCCOCCOC(=O)C[C@@H]2N=C(c3ccc(Cl)cc3)c3c(sc(C)c3C)-n3c(C)nnc32)c1 | 0.0158
Cc1ncsc1-c1ccc(CNC(=O)[C@@H]2C[C@@H](O)CN2C(=O)[C@H](C(C)C)N2Cc3ccccc3C2=O)c(OCCCOCCNC(=O)C[C@@H]2N=C(c3ccc(Cl)cc3)c3c(sc(C)c3C)-n3c(C)nnc32)c1 | 0.0683

I = Cc1ncsc1-c1ccc(CNC(=O)[C@@H]2C[C@@H](O)CN2C(=O)[C@H](C(C)C)N2Cc3ccccc3C2=O)c(OCCCOCCCC[C@@H]2N=C(c3ccc(Cl)cc3)c3c(sc(C)c3C)-n3c(C)nnc32)c1
II = Cc1ncsc1-c1ccc(CNC(=O)[C@@H]2C[C@@H](O)CN2C(=O)[C@H](C(C)C)N2Cc3ccccc3C2=O)c(OCCCOCCC(=O)C[C@@H]2N=C(c3ccc(Cl)cc3)c3c(sc(C)c3C)-n3c(C)nnc32)c1
Query: For the two items I and II , which reports the higher DC50 value? Write down the label of the entry you select.
Result: I

====

# AUC per entry
Target Of Assay: Protein cereblon/Bromodomain-containing protein 4/DNA damage-binding protein 1 (Homo sapiens) (UniProt O60885+Q96SW2+Q16531)
Test Description: Binding affinity to biotinylated CRBN/DDB1/N-terminal GST-tagged BRD4-BD1(unknown origin) assessed as ternary complex formation (AUC) by HTRF assay
Format: protein assay
API doc: respond with a numeric literal and nothing else, no unit.

Cc1sc2c(c1C)C(c1ccc(Cl)cc1)=N[C@@H](CC(=O)CCCCNC(=O)COc1cccc3c1C(=O)N(C1CCC(=O)NC1=O)C3=O)c1nnc(C)n1-2 (stereo not given in full) | 251
Cc1sc2c(c1C)C(c1ccc(Cl)cc1)=N[C@@H](CCNCCCCNC(=O)COc1cccc3c1C(=O)N(C1CCC(=O)NC1=O)C3=O)c1nnc(C)n1-2 (stereo not given in full) | 71.5

Query: I am curious: what AUC value has been reported for Cc1sc2c(c1C)C(c1ccc(Cl)cc1)=N[C@@H](CC(=O)NCCCCNC(=O)COc1cccc3c1C(=O)N(C1CCC(=O)NC1=O)C3=O)c1nnc(C)n1-2 (stereo not given in full) ?
Result: 163

Query: I am curious: what AUC value has been reported for Cc1sc2c(c1C)C(c1ccc(Cl)cc1)=N[C@@H](CCCCCNC(=O)COc1cccc3c1C(=O)N(C1CCC(=O)NC1=O)C3=O)c1nnc(C)n1-2 (stereo not given in full) ?
Result: 156

Query: I am curious: what AUC value has been reported for Cc1sc2c(c1C)C(c1ccc(Cl)cc1)=N[C@@H](CC(=O)OCCCCNC(=O)COc1cccc3c1C(=O)N(C1CCC(=O)NC1=O)C3=O)c1nnc(C)n1-2 (stereo not given in full) ?
Result: 158

====

Target Of Assay: von Hippel-Lindau disease tumor suppressor/Bromodomain-containing protein 4 (Homo sapiens, UniProt O60885+P40337)
Test Description: PROTAC activity at VHL/BRD4 in HEK293 cells assessed as induction of BRD4 degradation by measuring maximal efficacy incubated for 24 hrs by HTRF assay relative to control
Assay type: cell-based
Experimental Endpoint: Emax (%)

Record excerpt, results attached:
Cc1ncsc1-c1ccc(CNC(=O)[C@@H]2C[C@@H](O)CN2C(=O)[C@H](C(C)C)N2Cc3ccccc3C2=O)c(OCCCOCCNCC[C@@H]2N=C(c3ccc(Cl)cc3)c3c(sc(C)c3C)-n3c(C)nnc32)c1 | 14
Cc1ncsc1-c1ccc(CNC(=O)[C@@H]2C[C@@H](O)CN2C(=O)[C@H](C(C)C)N2Cc3ccccc3C2=O)c(OCCCOCCOC(=O)C[C@@H]2N=C(c3ccc(Cl)cc3)c3c(sc(C)c3C)-n3c(C)nnc32)c1 | 89
Cc1ncsc1-c1ccc(CNC(=O)[C@@H]2C[C@@H](O)CN2C(=O)[C@H](C(C)C)N2Cc3ccccc3C2=O)c(OCCCOCCC(=O)C[C@@H]2N=C(c3ccc(Cl)cc3)c3c(sc(C)c3C)-n3c(C)nnc32)c1 | 79

P = Cc1ncsc1-c1ccc(CNC(=O)[C@@H]2C[C@@H](O)CN2C(=O)[C@H](C(C)C)N2Cc3ccccc3C2=O)c(OCCCOCCCC[C@@H]2N=C(c3ccc(Cl)cc3)c3c(sc(C)c3C)-n3c(C)nnc32)c1
Q = Cc1ncsc1-c1ccc(CNC(=O)[C@@H]2C[C@@H](O)CN2C(=O)[C@H](C(C)C)N2Cc3ccccc3C2=O)c(OCCCOCCNC(=O)C[C@@H]2N=C(c3ccc(Cl)cc3)c3c(sc(C)c3C)-n3c(C)nnc32)c1
Query: Please choose the item with the lower Emax value from this pair: P and Q Write down the label of the entry you select.
Result: P

Source of measurements: ChEMBL document CHEMBL6087442
